The measured values listed here are drawn from patent US20200102264A1.

Tested on: HCT116 colon cancer cells
Protocol Notes: hexoseaminidase cell proliferation assay, HCT116
Format: cell-based
Condition Summary: HCT116, 24 h
Measured IC50 by item
Measured Parameter: IC50

| Smiles Code | Result |
| --- | --- |
| O=C(N/N=C/c1ccc(O)c(O)c1)c1cc2ccccc2cc1O | > 50 µM |
| O=C(N/N=C/c1ccc(O)cc1)c1cc2ccccc2cc1O | > 50 µM |
| O=C(N/N=C/c1coc2ccccc2c1=O)c1cc2ccccc2cc1O | > 50 µM |

----------
Test system: HCT116 colon cancer cells
Protocol Notes: hexoseaminidase cell proliferation assay, HCT116
Format: cell-based
Condition Summary: Homo sapiens, HCT-116; HCT116, 24 h
pIC50: −log10 of the molar value.
Measured pIC50 by item

| Smiles Code | pIC50 |
| --- | --- |
| O=C(N/N=C/c1ccc2ccccc2n1)c1cc2ccccc2cc1O | < 4.30 |
| OC[C@H]1O[C@@H]2O[C@H]3[C@H](O)[C@@H](O)[C@@H](O[C@H]4[C@H](O)[C@@H](O)[C@@H](O[C@H]5[C@H](O)[C@@H](O)[C@@H](O[C@H]6[C@H](O)[C@@H](O)[C@@H](O[C@H]7[C@H](O)[C@@H](O)[C@@H](O[C@H]8[C@H](O)[C@@H](O)[C@@H](O[C@H]1[C@H](O)[C@H]2O)O[C@@H]8CO)O[C@@H]7CO)O[C@@H]6CO)O[C@@H]5CO)O[C@@H]4CO)O[C@@H]3CO | < 4.30 |
| C/C(=N\NC(=O)c1ccncc1)c1ccc2ccccc2c1O | < 5.70 |

----------
Test system: PanC-1 pancreatic cancer cells
Protocol Notes: hexoseaminidase cell proliferation assay, PanC-1
Type: cell-based
Condition Summary: Homo sapiens, PANC-1, 72 h
pIC50: −log10 of the molar value.
Measured Parameter: pIC50

| Compound | Study System | Measured Parameter | Result |
| --- | --- | --- | --- |
| COc1cc(OC)c2ccc(C=O)c(O)c2c1 [MRL, reference compound] | PanC-1 pancreatic cancer cells | pIC50 | < 4.30 |
| C/C(=N\NC(N)=S)c1ccc2ccccc2c1O | PanC-1 pancreatic cancer cells | pIC50 | < 5.00 |
| OC[C@H]1O[C@@H]2O[C@H]3[C@H](O)[C@@H](O)[C@@H](O[C@H]4[C@H](O)[C@@H](O)[C@@H](O[C@H]5[C@H](O)[C@@H](O)[C@@H](O[C@H]6[C@H](O)[C@@H](O)[C@@H](O[C@H]7[C@H](O)[C@@H](O)[C@@H](O[C@H]8[C@H](O)[C@@H](O)[C@@H](O[C@H]1[C@H](O)[C@H]2O)O[C@@H]8CO)O[C@@H]7CO)O[C@@H]6CO)O[C@@H]5CO)O[C@@H]4CO)O[C@@H]3CO | PanC-1 pancreatic cancer cells | pIC50 | < 4.30 |
